System: E. coli ATCC 25922
Procedure Summary: MIC, antibacterial and synergistic activity
Format: cell-based
Condition Summary: E. coli ATCC 25922 (Wt); Ceftazidime + inhibitor at 4 µg/mL
# MIC Ceftazidime + inhibitor per record follows

Use the examples below as a reference point.
compound="NCCONC(=O)[C@@H]1CC[C@@H]2CN1C(=O)N2OS(=O)(=O)O [Ex. 3]" readout_kind="MIC Ceftazidime + inhibitor" reported_measurement="≤0.25 µg/mL"
compound="O=C(NO[C@H]1CCCNC1)[C@@H]1CC[C@@H]2CN1C(=O)N2OS(=O)(=O)O [Ex. 2]" readout_kind="MIC Ceftazidime + inhibitor" reported_measurement="≤0.25 µg/mL"

# evaluate next
Lab entry: E. coli ATCC 25922 assay, compound CC(=O)NNC(=O)[C@@H]1CC[C@@H]2CN1C(=O)N2OS(=O)(=O)O [Ex. 5] , MIC Ceftazidime + inhibitor = ≤0.25 µg/mL

----------
Test system: E. coli JMI 2671
Procedure Summary: MIC, antibacterial and synergistic activity
Type: cell-based
Condition Summary: E. coli JMI 2671 (VIM-19 (Cpase)); Ceftazidime + inhibitor at 4 µg/mL
Readout Kind: MIC Ceftazidime + inhibitor (µg/mL)
Form entry: value (µg/mL) — number only.

compound=CC(=O)NNC(=O)[C@@H]1CC[C@@H]2CN1C(=O)N2OS(=O)(=O)O target_system="E. coli JMI 2671" readout_kind="MIC Ceftazidime + inhibitor" reported_measurement=2

# evaluate next
Lab entry: E. coli JMI 2671 assay, compound O=C(NNC(=O)[C@H]1CC[C@H]2CN1C(=O)N2OS(=O)(=O)O)C1CNC1 (stereo in doubt) , MIC Ceftazidime + inhibitor = 1

----------
Test system: E. coli JMI 11103
Procedure Summary: MIC, antibacterial and synergistic activity
Format: cell-based
Condition Summary: E. coli JMI 11103 (CTX-M15 (Intermediate ESBL)); Meropenem + inhibitor at 4 µg/mL
# MIC Meropenem + inhibitor per record follows

compound="O=C(NNC(=O)[C@H]1CC[C@H]2CN1C(=O)N2OS(=O)(=O)O)C1CC1 (stereo in doubt) [Ex. 7]" reported_measurement="≤0.0312 µg/mL"
compound="O=C(NO[C@H]1CCCNC1)[C@@H]1CC[C@@H]2CN1C(=O)N2OS(=O)(=O)O [Ex. 2]" reported_measurement="≤.031 µg/mL"

# evaluate next
Sample O=C(NO[C@H]1CCNC1)[C@@H]1CC[C@@H]2CN1C(=O)N2OS(=O)(=O)O [Ex. 1] ; MIC Meropenem + inhibitor observed: ≤.031 µg/mL

----------
Tested on: P. aerug JMI 149
Procedure Summary: MIC, antibacterial and synergistic activity
Assay type: cell-based
Condition Summary: P. aerug JMI 149 (Bla+++D+); Meropenem + inhibitor at 4 µg/mL
Readout Kind: MIC Meropenem + inhibitor (µg/mL)
Form entry: value (µg/mL) — number only.

compound="NCCONC(=O)[C@@H]1CC[C@@H]2CN1C(=O)N2OS(=O)(=O)O [Ex. 3]" reported_measurement=0.25

Sample CC(=O)NNC(=O)[C@@H]1CC[C@@H]2CN1C(=O)N2OS(=O)(=O)O [Ex. 5] ; MIC Meropenem + inhibitor observed: 0.5

Sample CCC(=O)NNC(=O)[C@@H]1CC[C@@H]2CN1C(=O)N2OS(=O)(=O)O [Ex. 8] ; MIC Meropenem + inhibitor observed: 0.5

Sample O=C(NNC(=O)[C@H]1CC[C@H]2CN1C(=O)N2OS(=O)(=O)O)C1CNC1 (stereo in doubt) [Ex. 9] ; MIC Meropenem + inhibitor observed: 0.5

Sample O=C(NO[C@H]1CCCNC1)[C@@H]1CC[C@@H]2CN1C(=O)N2OS(=O)(=O)O [Ex. 2] ; MIC Meropenem + inhibitor observed: 0.5

Sample O=C(NO[C@H]1CCNC1)[C@@H]1CC[C@@H]2CN1C(=O)N2OS(=O)(=O)O [Ex. 1] ; MIC Meropenem + inhibitor observed: 0.5

----------
# MIC Aztreonam + inhibitor per record follows
Tested on: E.coli JMI 4103
Procedure Summary: MIC, antibacterial and synergistic activity
Format: cell-based
Condition Summary: E.coli JMI 4103 (KPC-2, Tem-1, CMY-Type); Aztreonam + inhibitor at 4 µg/mL

compound=O=C(NO[C@H]1CCCNC1)[C@@H]1CC[C@@H]2CN1C(=O)N2OS(=O)(=O)O target_system="E.coli JMI 4103" readout_kind="MIC Aztreonam + inhibitor" reported_measurement=">4 µg/mL"

Lab entry: E.coli JMI 4103 assay, compound CCC(=O)NNC(=O)[C@@H]1CC[C@@H]2CN1C(=O)N2OS(=O)(=O)O , MIC Aztreonam + inhibitor = ≤0.062 µg/mL

Lab entry: E.coli JMI 4103 assay, compound O=C(NNC(=O)[C@H]1CC[C@H]2CN1C(=O)N2OS(=O)(=O)O)C1CNC1 (stereo in doubt) , MIC Aztreonam + inhibitor = ≤0.06 µg/mL

Lab entry: E.coli JMI 4103 assay, compound O=C(NO[C@H]1CCNC1)[C@@H]1CC[C@@H]2CN1C(=O)N2OS(=O)(=O)O , MIC Aztreonam + inhibitor = >4 µg/mL

Lab entry: E.coli JMI 4103 assay, compound O=C(NNC(=O)[C@H]1CC[C@H]2CN1C(=O)N2OS(=O)(=O)O)C1CC1 (stereo in doubt) , MIC Aztreonam + inhibitor = ≤0.062 µg/mL

Lab entry: E.coli JMI 4103 assay, compound CC(=O)NNC(=O)[C@@H]1CC[C@@H]2CN1C(=O)N2OS(=O)(=O)O , MIC Aztreonam + inhibitor = ≤0.062 µg/mL

Lab entry: E.coli JMI 4103 assay, compound NCCONC(=O)[C@@H]1CC[C@@H]2CN1C(=O)N2OS(=O)(=O)O , MIC Aztreonam + inhibitor = ≤0.062 µg/mL

----------
# MIC Meropenem + inhibitor per record follows
Test system: K. pneumo JMI 4106
Procedure Summary: MIC, antibacterial and synergistic activity
Type: cell-based
Condition Summary: K. pneumo JMI 4106 (KPC-3, TEM-1, SHV-12, SHV-141); Meropenem + inhibitor at 4 µg/mL

Use the examples below as a reference point.
molecule=CC(=O)NNC(=O)[C@@H]1CC[C@@H]2CN1C(=O)N2OS(=O)(=O)O target_system="K. pneumo JMI 4106" readout_kind="MIC Meropenem + inhibitor" reported_measurement="2 µg/mL"
molecule="O=C(NNC(=O)[C@H]1CC[C@H]2CN1C(=O)N2OS(=O)(=O)O)C1CC1 (stereo in doubt)" target_system="K. pneumo JMI 4106" readout_kind="MIC Meropenem + inhibitor" reported_measurement="≤0.0312 µg/mL"

Sample O=C(NO[C@H]1CCNC1)[C@@H]1CC[C@@H]2CN1C(=O)N2OS(=O)(=O)O ; MIC Meropenem + inhibitor observed: ≤.031 µg/mL

----------
# MIC Aztreonam + inhibitor per record follows
Test system: E. coli JMI 10767
Procedure Summary: MIC, antibacterial and synergistic activity
Format: cell-based
Condition Summary: E. coli JMI 10767 (Wt); Aztreonam + inhibitor at 4 µg/mL

molecule=CCC(=O)NNC(=O)[C@@H]1CC[C@@H]2CN1C(=O)N2OS(=O)(=O)O reported_measurement="≤0.062 µg/mL"

Lab entry: E. coli JMI 10767 assay, molecule O=C(NO[C@H]1CCCNC1)[C@@H]1CC[C@@H]2CN1C(=O)N2OS(=O)(=O)O , MIC Aztreonam + inhibitor = ≤.062 µg/mL

Lab entry: E. coli JMI 10767 assay, molecule NCCONC(=O)[C@@H]1CC[C@@H]2CN1C(=O)N2OS(=O)(=O)O , MIC Aztreonam + inhibitor = ≤0.062 µg/mL

Lab entry: E. coli JMI 10767 assay, molecule O=C(NNC(=O)[C@H]1CC[C@H]2CN1C(=O)N2OS(=O)(=O)O)C1CNC1 (stereo in doubt) , MIC Aztreonam + inhibitor = ≤0.06 µg/mL

Lab entry: E. coli JMI 10767 assay, molecule CC(=O)NNC(=O)[C@@H]1CC[C@@H]2CN1C(=O)N2OS(=O)(=O)O , MIC Aztreonam + inhibitor = ≤0.062 µg/mL

Lab entry: E. coli JMI 10767 assay, molecule O=C(NO[C@H]1CCNC1)[C@@H]1CC[C@@H]2CN1C(=O)N2OS(=O)(=O)O , MIC Aztreonam + inhibitor = ≤.062 µg/mL

Lab entry: E. coli JMI 10767 assay, molecule O=C(NNC(=O)[C@H]1CC[C@H]2CN1C(=O)N2OS(=O)(=O)O)C1CC1 (stereo in doubt) , MIC Aztreonam + inhibitor = ≤0.062 µg/mL

----------
Tested on: K. pneumo JMI 2673
Procedure Summary: MIC, antibacterial and synergistic activity
Format: cell-based
Condition Summary: K. pneumo JMI 2673 (CTX-M14 (ESBL)); substance alone
Readout Kind: MIC

Use the examples below as a reference point.
compound="CC(C)(O/N=C(\\C(=O)N[C@@H]1C(=O)N2C(C(=O)[O-])=C(C[n+]3ccccc3)CS[C@H]12)c1csc(N)n1)C(=O)O [Ceftazidime, ceftazidime, reference compound]" readout_kind=MIC reported_measurement="32 µg/mL"
compound=CCC(=O)NNC(=O)[C@@H]1CC[C@@H]2CN1C(=O)N2OS(=O)(=O)O readout_kind=MIC reported_measurement="> 16 µg/mL"
compound=CC(=O)NNC(=O)[C@@H]1CC[C@@H]2CN1C(=O)N2OS(=O)(=O)O readout_kind=MIC reported_measurement="> 16 µg/mL"
compound="O=C(NNC(=O)[C@H]1CC[C@H]2CN1C(=O)N2OS(=O)(=O)O)C1CNC1 (stereo in doubt)" readout_kind=MIC reported_measurement="> 16 µg/mL"
compound=O=C(NO[C@H]1CCCNC1)[C@@H]1CC[C@@H]2CN1C(=O)N2OS(=O)(=O)O readout_kind=MIC reported_measurement="> 16 µg/mL"

Sample O=C(NNC(=O)[C@H]1CC[C@H]2CN1C(=O)N2OS(=O)(=O)O)C1CC1 (stereo in doubt) ; MIC observed: > 16 µg/mL

Sample NCCONC(=O)[C@@H]1CC[C@@H]2CN1C(=O)N2OS(=O)(=O)O ; MIC observed: > 16 µg/mL

Sample O=C(NO[C@H]1CCNC1)[C@@H]1CC[C@@H]2CN1C(=O)N2OS(=O)(=O)O ; MIC observed: > 16 µg/mL

Sample C[C@@H](O)[C@H]1C(=O)N2C(C(=O)O)=C(S[C@@H]3CN[C@H](C(=O)N(C)C)C3)[C@H](C)[C@H]12 [Meropenem, meropenem, reference compound] ; MIC observed: ≤ 1 µg/mL
